measurementKind: IC50

Problem: Provide IC50, recorded with NS3-NS4 (Hepatitis C virus genotype 1a), of CC(C)CC1(S(=O)(=O)NC(=O)[C@@]23C[C@H]2CCCCCCC[C@H](NC(=O)OC(C)(C)C)C(=O)N2C[C@H](OC(=O)N4Cc5cccc(F)c5C4)C[C@H]2C(=O)N3)CC1 [Compound 654]
Solution: < 100 nM

Problem: State the measured IC50 (NS3-NS4 (Hepatitis C virus genotype 1a)) of CN(C(=O)N[C@H]1CCCCC/C=C\[C@@H]2C[C@@]2(C(=O)NS(=O)(=O)c2ccc(Cl)cc2)NC(=O)[C@@H]2C[C@@H](OC(=O)N3Cc4cccc(F)c4C3)CN2C1=O)C(C)(C)C [Compound 361]
Solution: < 100 nM

Problem: GET IC50 | system: NS3-NS4 (Hepatitis C virus genotype 1a) | item: Cc1ccccc1S(=O)(=O)NC(=O)[C@@]12C[C@H]1/C=C\CCCCC[C@H](NC(=O)OC1CCC1)C(=O)N1C[C@H](OC(=O)N3Cc4cccc(F)c4C3)C[C@H]1C(=O)N2 [Compound 338]
Solution: < 100 nM

====

biological target: NS3-NS4 (Hepatitis C virus genotype 1a, UniProt P27958); assay: cell-based; conditions: EC50, NS3-NS4 activity
Sequence (P27958 1027-1657): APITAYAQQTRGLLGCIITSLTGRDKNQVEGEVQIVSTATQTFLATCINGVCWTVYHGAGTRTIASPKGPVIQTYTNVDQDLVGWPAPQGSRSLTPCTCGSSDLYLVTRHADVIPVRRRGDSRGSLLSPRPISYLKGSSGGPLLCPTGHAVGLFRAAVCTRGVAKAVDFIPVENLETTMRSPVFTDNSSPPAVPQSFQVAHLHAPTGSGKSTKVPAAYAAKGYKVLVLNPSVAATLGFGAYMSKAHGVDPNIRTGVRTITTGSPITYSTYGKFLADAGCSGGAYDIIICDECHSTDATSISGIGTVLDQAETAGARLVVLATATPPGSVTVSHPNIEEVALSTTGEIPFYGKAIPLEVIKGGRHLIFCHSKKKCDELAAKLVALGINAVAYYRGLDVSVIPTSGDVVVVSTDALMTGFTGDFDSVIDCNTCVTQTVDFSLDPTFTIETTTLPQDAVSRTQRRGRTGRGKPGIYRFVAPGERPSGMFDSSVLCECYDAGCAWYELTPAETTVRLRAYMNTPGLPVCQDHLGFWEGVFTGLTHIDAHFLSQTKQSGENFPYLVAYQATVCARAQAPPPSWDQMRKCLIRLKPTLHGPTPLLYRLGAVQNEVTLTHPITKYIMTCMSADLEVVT
Sequence (P27958 1658-1711): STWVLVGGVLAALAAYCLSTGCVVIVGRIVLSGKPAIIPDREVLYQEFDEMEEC
Please provide measured EC50 for the entries that follow.

Problem: Determine its reported EC50: CC(C)CS(=O)(=O)NC(=O)[C@@]12C[C@H]1/C=C\CCCCC[C@H](NC(=O)OC(C)(C)C)C(=O)N1C[C@H](OC(=O)N3Cc4cccc(F)c4C3)C[C@H]1C(=O)N2 [Compound 551]
Solution: < 100 nM

Problem: Using known records, supply EC50 for CC(C)(C)OC(=O)N[C@H]1CCCCC[C@@H]2C[C@@H]2[C@@H]2C[C@@]2(C(=O)NS(=O)(=O)C2(C)CC2)NC(=O)[C@@H]2C[C@@H](OC(=O)N3Cc4cccc(F)c4C3)CN2C1=O [Compound 901]
Solution: < 100 nM

Problem: Input O=C1N[C@]2(C(=O)NS(=O)(=O)C3CC3)C[C@H]2/C=C\CCCCC[C@H](NC(=O)N2CCCCC2)C(=O)N2C[C@H](OC(=O)N3Cc4cccc(F)c4C3)C[C@@H]12 [Compound 415] , output reported EC50.
Solution: < 100 nM

====

molecular target: NS3-NS4 (Hepatitis C virus genotype 1a, UniProt P27958); test: cell-based; conditions: EC50, NS3-NS4 activity
pEC50: −log10 of the molar value.
Provide the recorded pEC50 for the entries that follow.

Problem: Output measured pEC50 for this item: `O=C(C[C@H]1CCCCC/C=C\[C@@H]2C[C@@]2(C(=O)NS(=O)(=O)C2CC2)NC(=O)[C@@H]2C[C@@H](OC(=O)N3Cc4cccc(F)c4C3)CN2C1=O)Oc1ccccc1`
Solution: 6.00 to 7.00

Problem: Indicate its recorded pEC50; the molecule in question is `O=C1N[C@]2(C(=O)NS(=O)(=O)C3CC3)C[C@H]2/C=C\CCCCC[C@H](Nc2nc(-c3ccc(Cl)cc3)cs2)C(=O)N2C[C@H](OC(=O)N3Cc4cccc(F)c4C3)C[C@@H]12`
Solution: > 7.00

Problem: Answer with the recorded pEC50 of `CC(C)(C)OC(=O)N[C@H]1CCCCC/C=C\[C@@H]2C[C@@]2(C(=O)NS(=O)(=O)c2cc3ccccc3o2)NC(=O)[C@@H]2C[C@@H](OC(=O)N3Cc4cccc(F)c4C3)CN2C1=O` only.
Solution: 6.00 to 7.00

Problem: Please give measured pEC50 of the following entry: `Cc1ccc(C)c(S(=O)(=O)NC(=O)[C@@]23C[C@H]2/C=C\CCCCC[C@H](NC(=O)OC(C)(C)C)C(=O)N2C[C@H](OC(=O)N4Cc5cccc(F)c5C4)C[C@H]2C(=O)N3)c1`
Solution: > 7.00

Problem: Answer with the recorded pEC50 of `CC(C)COC(=O)N[C@H]1CCCCC/C=C\[C@@H]2C[C@@]2(C(=O)NS(=O)(=O)c2cc(Cl)sc2Cl)NC(=O)[C@@H]2C[C@@H](OC(=O)N3Cc4cccc(F)c4C3)CN2C1=O` only.
Solution: > 7.00
